Target: porcine dipeptidyl peptidase II (DP II) (Sus scrofa)
Sequence (A0A5G2QK18 28-502): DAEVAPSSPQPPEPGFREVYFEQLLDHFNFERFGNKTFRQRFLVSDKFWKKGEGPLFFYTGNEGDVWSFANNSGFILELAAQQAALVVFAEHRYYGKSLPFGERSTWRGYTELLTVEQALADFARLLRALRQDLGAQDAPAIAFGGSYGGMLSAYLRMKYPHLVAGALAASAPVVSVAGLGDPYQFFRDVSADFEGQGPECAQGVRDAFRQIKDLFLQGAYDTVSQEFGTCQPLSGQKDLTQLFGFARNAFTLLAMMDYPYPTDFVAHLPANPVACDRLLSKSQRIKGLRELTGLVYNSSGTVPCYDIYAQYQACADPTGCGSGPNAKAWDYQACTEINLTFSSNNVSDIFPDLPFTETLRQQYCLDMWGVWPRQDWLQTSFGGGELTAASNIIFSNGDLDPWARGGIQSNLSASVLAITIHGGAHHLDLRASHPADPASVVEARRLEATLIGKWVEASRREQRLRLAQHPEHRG
Measurement Kind: Ki (µM)

[a] NC(=O)CCC(N)C(=O)N1CCSC1 (centres unmarked)
[b] NC(=O)CCC(N)C(=O)N1CCCC1 (centres unmarked)
Among a and b , which shows a numerically higher Ki result? Give the label under which the chosen entry appears.
b
(b: 85.2 µM, a: 10.7 µM)

###

Target: purified porcine DPIV (Sus scrofa, UniProt P22411)
Sequence (P22411 whole entry): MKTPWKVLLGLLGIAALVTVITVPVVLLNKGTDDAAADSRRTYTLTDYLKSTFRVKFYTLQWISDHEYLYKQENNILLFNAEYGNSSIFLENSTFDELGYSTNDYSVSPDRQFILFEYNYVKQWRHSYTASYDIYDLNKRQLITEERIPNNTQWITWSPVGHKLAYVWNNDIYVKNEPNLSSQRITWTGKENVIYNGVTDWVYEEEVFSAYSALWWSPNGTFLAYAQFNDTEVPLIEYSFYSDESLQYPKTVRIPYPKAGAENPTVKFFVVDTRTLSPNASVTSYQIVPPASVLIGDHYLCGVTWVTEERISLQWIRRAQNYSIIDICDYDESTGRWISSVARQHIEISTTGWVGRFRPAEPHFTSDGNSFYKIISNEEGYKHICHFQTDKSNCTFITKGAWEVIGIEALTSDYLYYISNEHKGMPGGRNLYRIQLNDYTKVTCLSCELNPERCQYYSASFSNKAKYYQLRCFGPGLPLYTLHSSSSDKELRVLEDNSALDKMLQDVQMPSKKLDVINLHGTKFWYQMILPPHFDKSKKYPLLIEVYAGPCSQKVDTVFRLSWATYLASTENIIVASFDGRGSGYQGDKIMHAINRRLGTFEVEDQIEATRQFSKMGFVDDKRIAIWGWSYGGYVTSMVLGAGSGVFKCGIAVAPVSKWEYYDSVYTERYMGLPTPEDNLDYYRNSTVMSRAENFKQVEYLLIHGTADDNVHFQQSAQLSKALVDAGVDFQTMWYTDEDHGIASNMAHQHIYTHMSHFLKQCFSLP
Square brackets hold non-standard residues; d marks the D form. Peptide text beside a SMILES is read from it. Tic = O=C(O)[C@@H]1Cc2ccccc2CN1; Tle = CC(C)(C)[C@H](N)C(=O)O
Measurement Kind: IC50 (µM)

[a] NC(=O)CCC(N)C(=O)N1CCCC1 (centres unmarked) [Gln-Pyrr, glutaminyl pyrrolidine]
[b] CC[C@H](C)[C@H](NC(=O)[C@@H]1CCCN1C(=O)[C@@H]1Cc2ccccc2CN1)C(=O)O [Tic-Pro-Ile] (H-[Tic]-Pro-Ile-OH; N-terminus and C-terminus assumed)
[c] CC(C)[C@H](N)C(=O)N1CCC[C@H]1C(=O)N[C@H](C(=O)O)C(C)(C)C [Val-Pro-t-butyl-Gly] (H-Val-Pro-[Tle]-OH; N-terminus and C-terminus assumed)
[d] CCC(C)C(N)C(=O)C1CCCCC1 (centres unmarked) [Ile-cyclohexyl ketone]
Place the item with the largest IC50 first, then continue in falling order, using the list above. Labels, requested order.
b, d, c, a

[P] CCC(C)C(N)C(=O)C1CCCC1 (centres unmarked) [Ile-cyclopentyl ketone]
[Q] CC(=O)C1CCCN1C(=O)C(N)C(C)C (stereo not drawn) [Val-Pro-methyl ketone]
Sorting ascending by IC50, which comes first: P or Q ? Refer to your chosen item by its label in the answer.
Q
(Q: 0.579 µM, P: 38.2 µM)
